test system: Stenotrophomonas maltophilia; test: Antimicrobial activity against Stenotrophomonas maltophilia assessed as percent susceptible isolates by agar dilution method; type: functional
For each entry below, report its Activity value.
Answers are plain numbers, in %.

C[C@H]1COc2c(N3CCN(C)CC3)c(F)cc3c(=O)c(C(=O)O)cn1c23.C[C@H]1COc2c(N3CCN(C)CC3)c(F)cc3c(=O)c(C(=O)O)cn1c23.O	47
O=C(O)c1cn(C2CC2)c2cc(N3CCNCC3)c(F)cc2c1=O	15
CO/N=C(\C(=O)N[C@@H]1C(=O)N2C(C(=O)O)=C(CSc3nc(=O)c(O)nn3C)CS[C@H]12)c1csc(N)n1	15
CO/N=C(\C(=O)N[C@@H]1C(=O)N2C(C(=O)[O-])=C(C[N+]3(C)CCCC3)CS[C@H]12)c1csc(N)n1	23

Give the reported Activity for this molecule. C[C@@H](O)[C@H]1C(=O)N2C(C(=O)O)=C(SCCNC=N)C[C@H]12 [IMIPENEM ANHYDROUS]
69

###

test system: Escherichia coli; assay: Antimicrobial activity against Escherichia coli obtained from patient with complicated intra-abdominal infection assessed as percent susceptible isolates by agar dilution method; assay type: functional
testReadout: Activity (%)
Answers are plain numbers, in %.

Consider the following illustrative entries.
CC(C)(O/N=C(\C(=O)N[C@@H]1C(=O)N2C(C(=O)[O-])=C(C[n+]3ccccc3)CS[C@H]12)c1csc(N)n1)C(=O)O [CEFTAZIDIME]	96
CO[C@@]1(NC(=O)Cc2cccs2)C(=O)N2C(C(=O)O)=C(COC(N)=O)CS[C@@H]21 [CEFOXITIN]	93
CO/N=C(\C(=O)N[C@@H]1C(=O)N2C(C(=O)O)=C(CSc3nc(=O)c(O)nn3C)CS[C@H]12)c1csc(N)n1 [CEFTRIAXONE]	96

For every item below, please supply its Activity.
1. C[C@@H](O)[C@H]1C(=O)N2C(C(=O)O)=C(S[C@@H]3CN[C@H](C(=O)Nc4cccc(C(=O)O)c4)C3)[C@H](C)[C@H]12
2. C[C@H]1COc2c(N3CCN(C)CC3)c(F)cc3c(=O)c(C(=O)O)cn1c23.C[C@H]1COc2c(N3CCN(C)CC3)c(F)cc3c(=O)c(C(=O)O)cn1c23.O [LEVOFLOXACIN]
3. CO/N=C(\C(=O)N[C@@H]1C(=O)N2C(C(=O)O)=C(COC(C)=O)CS[C@H]12)c1csc(N)n1 [CEFOTAXIME]
4. C[C@@H](O)[C@H]1C(=O)N2C(C(=O)O)=C(SCCNC=N)C[C@H]12 [IMIPENEM ANHYDROUS]
5. NCC[C@H](O)C(=O)N[C@@H]1C[C@H](N)[C@@H](O[C@H]2O[C@H](CN)[C@@H](O)[C@H](O)[C@H]2O)[C@H](O)[C@H]1O[C@H]1O[C@H](CO)[C@@H](O)[C@H](N)[C@H]1O [AMIKACIN]

[99, 81, 96, 100, 98]

###

For each entry below, report its Activity value.
test system: Klebsiella pneumoniae; test: Antimicrobial activity against extended-spectrum beta-lactamase-positive Klebsiella pneumoniae assessed as percent susceptible isolates by agar dilution method; format: functional
Reply with the number and its unit after it.

Consider the following illustrative entries.
CO[C@@]1(NC(=O)Cc2cccs2)C(=O)N2C(C(=O)O)=C(COC(N)=O)CS[C@@H]21	66%
C[C@H]1COc2c(N3CCN(C)CC3)c(F)cc3c(=O)c(C(=O)O)cn1c23.C[C@H]1COc2c(N3CCN(C)CC3)c(F)cc3c(=O)c(C(=O)O)cn1c23.O	28%
CO/N=C(\C(=O)N[C@@H]1C(=O)N2C(C(=O)O)=C(CSc3nc(=O)c(O)nn3C)CS[C@H]12)c1csc(N)n1	19%
C[C@@H](O)[C@H]1C(=O)N2C(C(=O)O)=C(SCCNC=N)C[C@H]12 [IMIPENEM ANHYDROUS]	94%
CO/N=C(\C(=O)N[C@@H]1C(=O)N2C(C(=O)O)=C(COC(C)=O)CS[C@H]12)c1csc(N)n1	19%

For every item below, please supply its Activity.
1. NCC[C@H](O)C(=O)N[C@@H]1C[C@H](N)[C@@H](O[C@H]2O[C@H](CN)[C@@H](O)[C@H](O)[C@H]2O)[C@H](O)[C@H]1O[C@H]1O[C@H](CO)[C@@H](O)[C@H](N)[C@H]1O
2. CC(C)(O/N=C(\C(=O)N[C@@H]1C(=O)N2C(C(=O)[O-])=C(C[n+]3ccccc3)CS[C@H]12)c1csc(N)n1)C(=O)O
3. C[C@@H](O)[C@H]1C(=O)N2C(C(=O)O)=C(S[C@@H]3CN[C@H](C(=O)Nc4cccc(C(=O)O)c4)C3)[C@H](C)[C@H]12

69%
19%
78%

For every item below, please supply its Activity.
1. CO/N=C(\C(=O)N[C@@H]1C(=O)N2C(C(=O)[O-])=C(C[N+]3(C)CCCC3)CS[C@H]12)c1csc(N)n1
2. O=C(O)c1cn(C2CC2)c2cc(N3CCNCC3)c(F)cc2c1=O

1. 47%
2. 19%
